Tested on: MS2 coat protein
Experiment: apparent Kd, MS2 coat protein; higher = weaker binding; RNA-MaP array; FMN 200 µM where present
Settings: ligand present: flavin mononucleotide; designed as: OFF switch for flavin mononucleotide
Values of apparent Kd greater than or equal to 100 nM map to TRUE; values below map to FALSE.

[
  {
    "sequence": "CGCACUUAGCGAGGAUAUGUAAAACAUGAGGAUCACCCAUGUGAUUUAGUAUCAAUUUUAAUGAAACAGAAGGCGCUUAGUGCG",
    "assignedCategory": "FALSE"
  },
  {
    "sequence": "CGUUGUUAAGGAUAUGGACUCUUGAACAUGAGGAUCACCCAUGUGCGCGUGGUCUAAAUACCAGAAGGUGGCCGCC",
    "assignedCategory": "FALSE"
  },
  {
    "sequence": "GUUAAACAUGAGGAUCACCCAUGUAAGGAUAUGCUGCGGUAGAGAUGAAGUGAAUGCAGCAGAAGGUACAAUUG",
    "assignedCategory": "TRUE"
  },
  {
    "sequence": "UGAUACUAAGAGAAGGUUCAAACUACAUAUUGCAUACAUGAGGAUCACCCAUGUUGGUGAAUAAGAAAGGAUAUUUUACUAUAU",
    "assignedCategory": "FALSE"
  },
  {
    "sequence": "ACUUUACGAGGAUAUACUGUCGGGCCUCGGGCAUACAUACGACAUGAGGAUCACCCAUGUAGAAGGCGUUUACU",
    "assignedCategory": "FALSE"
  },
  {
    "sequence": "UGCAGGUGAGGAUAUGCGGGCGAGCUAACAUAAGCAUCGAAGCAGAAGGCACAUGAGGAUCACCCAUGUAGUCC",
    "assignedCategory": "FALSE"
  },
  {
    "sequence": "ACGUAUCAUGUAGGAUAUGACCCAGGAAACUGGUCAGAAGGACAUGAGGAUCACCCAUGUAGAGUAUGUUAGGAUGACGUAUGC",
    "assignedCategory": "TRUE"
  },
  {
    "sequence": "GUAGCUACAUGAGGAUCACCCAUGUAGGAUAUCGCUAUUGUAAUCAUGUUACAUGAUUACAAUAGCGAGAAGGACGUGAGCUAC",
    "assignedCategory": "FALSE"
  },
  {
    "sequence": "UGGCGUUGAGGAUAUACAUUGAAUAAGAUUCAUGUAAAACUACAUGAGGAUCACCCAUGUAGAAGGCAAUGCCU",
    "assignedCategory": "FALSE"
  },
  {
    "sequence": "CUCGAGUUAGGAUAUCGAACGUAACAAGCGGGAACUCCCGCCGAGAAGGAACAUGAGGAUCACCCAUGUGAAAA",
    "assignedCategory": "FALSE"
  },
  {
    "sequence": "UGAUAGGACAGAGGAUAUACCGAUAGGAGAUACUAUCGACUAGUCCUCACAUGAGGAUCACCCAUGUAGAAGGCUGUCCUAUCU",
    "assignedCategory": "TRUE"
  },
  {
    "sequence": "UUGAAGUCAUCAGGAUAUAGUAUAAAAGACAUAUAUUUUUUCAAACAUGAGGAUCACCCAUGUCGCUAGAAGGGAUUAUAGAUU",
    "assignedCategory": "FALSE"
  },
  {
    "sequence": "CUGACGAUGUAAGGAUAUGCUGAGGAUAACUCAGCAGAAGGUACAUGAGGAUCACCCAUGUAACGUCAGAAUAAUAAUAAUAAU",
    "assignedCategory": "FALSE"
  },
  {
    "sequence": "UGACCCAUGACAUGAGAUGACAUGAGGAUCACCCAUGUUUACAAGGAUAUGUUGGUCAAAGGUCGGCAGAAGGUGUAAUGGGAU",
    "assignedCategory": "TRUE"
  },
  {
    "sequence": "UUUUAACAUGAGGAUCACCCAUGUGAGGAUAUCGUUAUUUAUAUUAAUAUUAAUAAAACGAGAAGGCACAUUUU",
    "assignedCategory": "TRUE"
  },
  {
    "sequence": "AAAACUGAAGGAUAUGCCAGGGUGAGAGCUGGUGACGUUUAACAUGAGGAUCACCCAUGUAGAAGGUCAAAACA",
    "assignedCategory": "FALSE"
  },
  {
    "sequence": "CUUUUGUGAGGAUAUUGGUAGUAAAUGAAUAAAAUUAUUACCGAGAAGGCACAUGAGGAUCACCCAUGUUCCUC",
    "assignedCategory": "TRUE"
  },
  {
    "sequence": "GGAUCACAAAGUGAUCCAAUACGAACAUGAGGAUCACCCAUGUAGGAUAUGCUACUCAAAGAGUAGCAGAAGGACAUGUGCCUU",
    "assignedCategory": "TRUE"
  },
  {
    "sequence": "CGACAUUUAGGAUAUACGGUUAUUGAGGUUUUUGUUAGUCGACAUGAGGAUCACCCAUGUAGAAGGAAAUGAGU",
    "assignedCategory": "FALSE"
  },
  {
    "sequence": "CGAUAAUAUAGUUAUCCGUAGCGAACAUGAGGAUCACCCAUGUAGGAUAUGUUACUAAACUAGUAACAGAAGGACAUGAGUCUU",
    "assignedCategory": "TRUE"
  },
  {
    "sequence": "UUCCUGUCAGGAUAUGACUAGAGGCACGAAAGUGUGUUUAGUUAGAAGGGACAUGAGGAUCACCCAUGUAGUCC",
    "assignedCategory": "FALSE"
  },
  {
    "sequence": "CUUGUGUUAGGAUAUGCGUUUCCGGUGCGUCACUGGAUCUGGCAGAAGGGACAUGAGGAUCACCCAUGUUUGGC",
    "assignedCategory": "FALSE"
  },
  {
    "sequence": "UUUGUUUAUGCAGGAUAUUGUAUUUUAUUACAUCAAGAAGGGCAUUACAUGAGGAUCACCCAUGUUAUCUUAUGGUUAACUAGU",
    "assignedCategory": "FALSE"
  },
  {
    "sequence": "UUGAUGUCAUCAGGAUAUAGUAUUUAAGACAUAUCUUCUUUCAAACAUGAGGAUCACCCAUGUCGCUAGAAGGGAUGAAUGAUU",
    "assignedCategory": "FALSE"
  },
  {
    "sequence": "CUCGGACAUGAGGAUCACCCAUGUGAGGAUAUGGCGCGAUCGUCGAAAGACGAUAGCGCCAGAAGGCACAAAUG",
    "assignedCategory": "TRUE"
  },
  {
    "sequence": "GUGUACGGAGGAUAUAUAUGGGCAGCAUACGCUGCAGCUUCACAUGAGGAUCACCCAUGUAGAAGGCUGUGCAC",
    "assignedCategory": "TRUE"
  },
  {
    "sequence": "CUUUUGUGAGGAUAUUAGUAGUAAACAAACAAAAUUAUUACUGAGAAGGCACAUGAGGAUCACCCAUGUUCCUC",
    "assignedCategory": "TRUE"
  },
  {
    "sequence": "AAUUAUUCAGGAGGAUAUCCCAGGACAUGAGGAUCACCCAUGUUCGGGUUGCCCUCAUGAACGCCGGAGAAGGCCUGAACGAAU",
    "assignedCategory": "FALSE"
  }
]
